assay: Compound solubility in water
Property: solubility (µg/mL)
Answers are plain numbers, in µg/mL.

Guide cases for solubility, answers given:
> print(dat)
                                   molecule  test.result
1  COc1nc2cc(N3CCOCC3)c(F)cc2n1C(=O)NCCc1ccccc1 [Example 334b]            5
2  COc1nc2ccc(-c3cncnc3)cc2n1C(=O)NCCc1ccccc1 [Example 31a]          7.1
3  CNC1CN(c2cccc3c2ncn3C(=O)NCCOc2ccccc2)C1           19
4  COc1nc2cc(N3CCOCC3)c(F)cc2n1C(=O)NCCCCc1ccccc1          0.3
5  C[C@@H](CCNC(=O)n1cnc2c(N3CCN(C)CC3)cccc21)c1ccccc1 [Example 253a]           26
6    COc1nc2c(C#N)cccc2n1C(=O)NCCCCc1ccccc1          0.3
7    CCN1CCN(c2cccc3c2ncn3C(=O)NCCC(C)C)CC1           31
8          O=C(NCCc1ccccc1)n1cnc2c(F)cccc21          3.6

Quick request: solubility for each listed item, please.
1. CC#CCNC(=O)n1cnc2c(N3CCN(C)CC3)cccc21
2. O=C(NCCCc1ccccc1)n1cnc2c(N3CC4CNCC4C3)cccc21 (stereo not shown)
3. COc1nc2cc(N3CCOCC3)ccc2n1C(=O)NCCCc1ccc(F)cc1F [Example 224b]
4. CCC(C)NC(=O)n1c(OC)nc2cc(-c3cncnc3)ccc21 (stereo not shown) [Example 109b]
5. COc1ccc2c(c1)ncn2C(=O)NCCc1ccccc1 [Example 25a]
6. CC(C)(C)CCNC(=O)n1cnc2c(N3CCN(C4CC4)CC3)cccc21
7. O=C(NCCCc1ccccc1)n1cnc2c(N3CCN(C4COC4)CC3)cccc21
8. O=C(NCCCc1ccccc1)n1cnc2c(N3CCN4CCCC4C3)cccc21 (stereo not shown)

Reply:
[32, 27, 12, 32.4, 2.6, 2, 24, 17]

Quick request: solubility for each listed item, please.
1. CN1CCN(C2CN(c3cccc4c3ncn4C(=O)NCC#Cc3ccccc3)C2)CC1
2. CN1CCN(c2cccc3c2ncn3C(=O)NCCCC(F)(F)F)CC1
3. CC(=O)N1CCN(c2cccc3c2ncn3C(=O)NCCCC2(C(F)(F)F)CC2)CC1
4. O=C(NCCCc1ccccc1)n1cnc2c(N3CCC4(CC3)COC4)cccc21
5. CN1CC2CC(C1)N2c1cccc2c1ncn2C(=O)NCCCc1ccccc1
6. COc1nc2ccc(N3CCOCC3)cc2n1C(=O)NCCCc1ccc(F)nc1 [Example 232a]

Reply:
24
35
20
2.5
32
25

Quick request: solubility for each listed item, please.
1. CC(C)CCNC(=O)n1cnc2c(C3CCN(C)CC3)cc(Cl)cc21 [Example 112b]
2. O=C(NCCc1ccccc1)n1cnc2cc(-c3cccnc3)ccc21 [Example 10a]
3. CC1(N)CCN(c2cccc3c2ncn3C(=O)NCCCc2ccccc2)CC1
4. CC(C)CCNC(=O)n1c(=O)n(C)c2ncc(-c3cccnc3)cc21
5. CC(C)CCNC(=O)n1cnc2c(N3CCN(C)C(C)C3)cccc21 (stereo not shown)
6. Cc1cc(C2CCN(C)CC2)c2ncn(C(=O)NCCC(C)C)c2c1 [Example 112a]

Reply:
[20, 1.2, 25, 18, 28, 22.9]
